# Test system: Human immunodeficiency virus 1
# assay-notes: Antiviral activity against Human immunodeficiency virus 1 isolate M1 expressing protease L10I, M46I, I64V, I84V, L90M, I93L mutant infected in human MT4 cells
# Format: functional, organism-based
# experimental-conditions: Human immunodeficiency virus 1, isolate M1, MT4
Consider the cut-off 30 nM. If the recorded EC50 is strictly smaller, the label is Fulfilled; if not, the label is Not fulfilled.

CC(C)CN(C[C@@H](O)[C@H](Cc1ccccc1)NC(=O)O[C@H]1CO[C@H]2OC[C@H](Oc3ccccc3)[C@H]21)S(=O)(=O)c1ccc(N)cc1 = Not fulfilled
CNc1nc2ccc(S(=O)(=O)N(CC(C)C)C[C@@H](O)[C@H](Cc3ccccc3)NC(=O)O[C@H]3CO[C@H]4OC[C@H](OCOC)[C@H]43)cc2o1 = Fulfilled
CNc1nc2ccc(S(=O)(=O)N(CC(C)C)C[C@@H](O)[C@H](Cc3ccccc3)NC(=O)O[C@H]3CO[C@H]4OC[C@H](OCCOC)[C@H]43)cc2o1 = Fulfilled

### Prompt hey, is EC50 for CNc1nc2ccc(S(=O)(=O)N(CC(C)C)C[C@@H](O)[C@H](Cc3ccccc3)NC(=O)O[C@H]3CO[C@H]4OC[C@H](O)[C@H]43)cc2o1 lower than 30 nM or not?
### Response Not fulfilled

### Prompt hey, is EC50 for CC(C)CN(C[C@@H](O)[C@H](Cc1ccccc1)NC(=O)O[C@H]1CO[C@H]2OCC[C@H]21)S(=O)(=O)c1ccc(N)cc1 lower than 30 nM or not?
### Response Fulfilled

### Prompt hey, is EC50 for CC(C)CN(C[C@@H](O)[C@H](Cc1ccccc1)NC(=O)O[C@H]1CO[C@H]2OC[C@H](O)[C@H]21)S(=O)(=O)c1ccc(N)cc1 lower than 30 nM or not?
### Response Not fulfilled
